# SYSTEM_TESTED: full-length SARM1 (FL-SARM1) (Homo sapiens)
# Sequence (Q6SZW1 28-724): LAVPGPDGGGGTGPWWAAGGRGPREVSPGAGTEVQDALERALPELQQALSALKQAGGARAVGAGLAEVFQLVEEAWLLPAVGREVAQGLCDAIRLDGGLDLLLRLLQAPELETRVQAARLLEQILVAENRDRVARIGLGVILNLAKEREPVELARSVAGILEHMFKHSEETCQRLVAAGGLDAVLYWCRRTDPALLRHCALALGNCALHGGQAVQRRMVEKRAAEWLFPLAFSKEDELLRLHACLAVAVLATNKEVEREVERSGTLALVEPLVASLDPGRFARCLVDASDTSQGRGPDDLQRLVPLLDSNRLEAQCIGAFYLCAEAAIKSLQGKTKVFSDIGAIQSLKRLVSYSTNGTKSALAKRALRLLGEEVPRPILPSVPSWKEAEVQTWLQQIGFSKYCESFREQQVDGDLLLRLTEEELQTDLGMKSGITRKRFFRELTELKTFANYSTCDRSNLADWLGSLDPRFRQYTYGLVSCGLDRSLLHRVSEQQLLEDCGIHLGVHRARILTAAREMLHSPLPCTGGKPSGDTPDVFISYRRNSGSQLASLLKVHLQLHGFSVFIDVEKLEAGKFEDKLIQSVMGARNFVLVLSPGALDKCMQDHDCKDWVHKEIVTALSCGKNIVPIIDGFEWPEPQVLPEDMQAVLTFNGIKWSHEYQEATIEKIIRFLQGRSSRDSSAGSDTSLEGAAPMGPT
# PROTOCOL_NOTES: FL-SARM1 cellular lysate assay (NAD/NADH-Glo readout of remaining NAD+)
# TEST_CONDITIONS: Activity, SARM1 cellular lysate from transfected HEK293T cells, NAD+ and NMN, 11 point curve
PROPERTY_MEASURED: IC50

[
  {
    "MOLECULE": "Cc1nnc([C@]23C[C@H](C)C[C@H](C2)N3C(=O)Nc2ccc(C)c(-c3cncc(F)c3)c2)o1 (single isomer, unassigned) [Example 128]",
    "PROPERTY_MEASURED": "IC50",
    "RESULT_VALUE": "> 10000 nM"
  },
  {
    "MOLECULE": "C[C@H]1CC2C[C@@H](C1)N2C(=O)Nc1ccc(Cl)c(-c2cncc(F)c2)c1 (single isomer, unassigned) [Example 80]",
    "PROPERTY_MEASURED": "IC50",
    "RESULT_VALUE": "0.1 to 1000 nM"
  },
  {
    "MOLECULE": "Cc1ccc(NC(=O)N2C3C[C@H]2C[C@]2(C3)CC2(F)F)cc1-c1cncc(F)c1 (stereo in doubt) [Example 10]",
    "PROPERTY_MEASURED": "IC50",
    "RESULT_VALUE": "0.1 to 1000 nM"
  },
  {
    "MOLECULE": "O=C(Nc1ccc(C(F)(F)F)c(-c2cncc(F)c2)c1)N1C2CCCC1C2 [Example 75]",
    "PROPERTY_MEASURED": "IC50",
    "RESULT_VALUE": "1000 to 10000 nM"
  },
  {
    "MOLECULE": "Cc1ccc(NC(=O)N2C3C[C@H](C)C[C@@H]2C3)cc1-c1cccnc1 [Example 17]",
    "PROPERTY_MEASURED": "IC50",
    "RESULT_VALUE": "0.1 to 1000 nM"
  },
  {
    "MOLECULE": "Cc1ccc(NC(=O)CC2CCC2)cc1-c1cncnc1 [Example 118]",
    "PROPERTY_MEASURED": "IC50",
    "RESULT_VALUE": "> 10000 nM"
  }
]

IN: IC50 for Cc1ccc(NC(=O)N2C3CCCC2C3)cc1-c1cncc(S(C)(=O)=O)c1 [Example 47] ?
OUT: > 10000 nM
